Biological target: human AT1 receptor (Homo sapiens)
Construct: expressed in transfected cells; host or cells: CHO-K1
Sequence (P30556 1-359): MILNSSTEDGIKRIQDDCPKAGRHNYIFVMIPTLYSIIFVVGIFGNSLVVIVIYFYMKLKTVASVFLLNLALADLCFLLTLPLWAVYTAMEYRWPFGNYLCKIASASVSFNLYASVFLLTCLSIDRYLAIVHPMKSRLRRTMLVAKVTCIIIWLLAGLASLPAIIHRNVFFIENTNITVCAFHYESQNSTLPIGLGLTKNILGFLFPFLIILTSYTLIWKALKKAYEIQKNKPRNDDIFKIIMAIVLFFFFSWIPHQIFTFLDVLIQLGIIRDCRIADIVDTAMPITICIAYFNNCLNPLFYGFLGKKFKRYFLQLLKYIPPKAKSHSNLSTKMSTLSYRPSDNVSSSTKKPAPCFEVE
Assay: Binding assay using human AT1 receptor-expressing CHO-K1 cell membrane fraction ([125I]-angiotensin II)
Conditions: 22.5 pM [125I]-angiotensin II, 9 μg AT1 membrane, 1 hr room temperature; read-out: AT1 receptor binding inhibitory action (IC50 (nM))
Measured Quantity: IC50 (nM)

>>> reported_value("CCCc1nc(CC)n(-c2ccc(OC(C)(C)C)cc2)c(=O)c1Cc1ccc(-c2ccccc2-c2noc(=O)[nH]2)cc1")
1.9
>>> reported_value("CCOc1nc(C)c(Cc2ccccc2)c(=O)n1Cc1ccc(-c2ccccc2-c2noc(=O)[nH]2)cc1")
1.9
>>> reported_value("CCCCc1nc(C)n(CC2CCCCO2)c(=O)c1Cc1ccc(-c2ccccc2-c2noc(=O)[nH]2)cc1 (stereo not shown)")
1.8
>>> reported_value("CCCCc1nc(C)n(CCc2ccc(OC)cc2)c(=O)c1Cc1ccc(-c2ccccc2-c2noc(=O)[nH]2)cc1")
1.8
